I'd appreciate it if you could supply normalised inhibition (eCFP-eYFP dual reporter) values for the items below.
testedTarget: UBE2W; further: test concentration or dose not given here
protocolText: reporter assay of Huesken 2005
conditionSummary: siRNA
Oligonucleotides are written 5' to 3', each unit as a sugar letter and its base; * is a phosphorothioate linkage, no mark a phosphodiester; rarer units and linkages stand in square brackets, end groups in braces. Plain capitals give the bases only. d = 2'-deoxy (DNA); r = 2'-OH (RNA)
Give bare numbers, in %.

Some solved entries appear below for comparison.
• sense rArArUrCrArGrUrUrUrGrUrCrUrUrArGrCrArUdTdT / antisense rArUrGrCrUrArArGrArCrArArArCrUrGrArUrUdGdG = 104
• sense rArUrCrCrUrCrArUrGrUrUrUrArUrArGrCrArAdTdT / antisense rUrUrGrCrUrArUrArArArCrArUrGrArGrGrArUdGdA = 104
• sense rUrArArCrArArGrArArUrCrCrArArArGrArArAdTdT / antisense rUrUrUrCrUrUrUrGrGrArUrUrCrUrUrGrUrUrAdCdA = 115
• sense rUrCrGrArUrArUrCrCrUrUrUrUrGrArCrUrCrUdTdT / antisense rArGrArGrUrCrArArArArGrGrArUrArUrCrGrAdCdT = 74.7
• sense rGrUrUrCrArUrCrCrUrCrArUrGrUrUrUrArUrAdTdT / antisense rUrArUrArArArCrArUrGrArGrGrArUrGrArArCdAdG = 105

Please state, for each entry, its recorded normalised inhibition (eCFP-eYFP dual reporter).
1. sense rGrCrArArGrGrArArArArGrArGrArCrGrArCrCdTdT / antisense rGrGrUrCrGrUrCrUrCrUrUrUrUrCrCrUrUrGrCdAdG
2. sense rGrUrUrCrArArArArUrUrCrArArUrUrArCrArCdTdT / antisense rGrUrGrUrArArUrUrGrArArUrUrUrUrGrArArCdAdC
3. sense rUrGrCrUrUrUrCrCrArGrCrUrGrCrArArGrGrAdTdT / antisense rUrCrCrUrUrGrCrArGrCrUrGrGrArArArGrCrAdTdG
4. sense rUrUrCrCrUrGrUrUrCrArUrCrCrUrCrArUrGrUdTdT / antisense rArCrArUrGrArGrGrArUrGrArArCrArGrGrArAdTdA
5. sense rUrUrUrArArArUrUrUrArGrUrArGrUrCrGrArUdTdT / antisense rArUrCrGrArCrUrArCrUrArArArUrUrUrArArAdTdA

## Output
112
73.6
110
73
88

Please state, for each entry, its recorded normalised inhibition (eCFP-eYFP dual reporter).
1. sense rGrCrGrCrUrCrUrCrArGrUrCrCrArArUrCrArGdTdT / antisense rCrUrGrArUrUrGrGrArCrUrGrArGrArGrCrGrCdTdG
2. sense rArGrArArUrCrCrArArArGrArArArArCrArArAdTdT / antisense rUrUrUrGrUrUrUrUrCrUrUrUrGrGrArUrUrCrUdTdG

## Output
109
106
